- Condition Summary: Crystal; visual observation
Each record here notes measured Normal melting temperature.
// return numeric value only (unit: °C, not printed)

INSERT INTO measurements (molecule, endpoint, units_label, numeric_readout) VALUES
  ('O=C(O)c1ccccc1O [2-hydroxybenzoic acid]', 'Normal melting temperature', '°C', 159);

Complete the entry with Normal melting temperature for `CC(=O)Oc1ccccc1C(=O)O` 135.4

Complete the entry with Normal melting temperature for `c1ccc2c(c1)-c1cccc3cccc-2c13` 108.4

Complete the entry with Normal melting temperature for `O=C(O)c1ccccc1` 122
